Measured values drawn from patent US7576108B2 for this set.

Biological target: purified recombinant human islet GK (Homo sapiens)
Construct: (His)6
Experiment: Enzymatic coupled glucokinase (GK) assay (NADH production, absorbance at 340 nm)
Details: concentration of activator that produced 50% of maximum increase in the activity of GK; at 10 mM glucose
pEC50: −log10 of the molar value.
Output criterion met for pEC50 not less than 6; output criterion not met otherwise.

Solved cases (3 shown):
- compound: "CS(=O)(=O)c1ccc([C@@]2(C(=O)Nc3nccs3)C[C@H]2C2CCCCC2)cc1C(F)(F)F (racemic)"
  discrete-label: "criterion met"
- compound: "COC(=O)c1ccc([C@@]2(C(=O)Nc3nccs3)C[C@H]2C2CCCC2)cc1 (racemic)"
  discrete-label: "criterion not met"
- compound: "O=C(Nc1nccs1)[C@]1(c2ccc(S(=O)(=O)NCCc3ccccn3)cc2)C[C@H]1C1CCCC1 (single isomer, unassigned)"
  discrete-label: "criterion met"

Qu. Determine whether measured pEC50 meets or exceeds 6 for Cc1cnc(NC(=O)[C@]2(c3ccc(S(C)(=O)=O)cc3)C[C@H]2C2CCCCC2)s1 (racemic)
Ans. criterion met

====

Target: purified recombinant human islet GK (Homo sapiens, UniProt P35557)
Construct: (His)6
Sequence (P35557 whole entry): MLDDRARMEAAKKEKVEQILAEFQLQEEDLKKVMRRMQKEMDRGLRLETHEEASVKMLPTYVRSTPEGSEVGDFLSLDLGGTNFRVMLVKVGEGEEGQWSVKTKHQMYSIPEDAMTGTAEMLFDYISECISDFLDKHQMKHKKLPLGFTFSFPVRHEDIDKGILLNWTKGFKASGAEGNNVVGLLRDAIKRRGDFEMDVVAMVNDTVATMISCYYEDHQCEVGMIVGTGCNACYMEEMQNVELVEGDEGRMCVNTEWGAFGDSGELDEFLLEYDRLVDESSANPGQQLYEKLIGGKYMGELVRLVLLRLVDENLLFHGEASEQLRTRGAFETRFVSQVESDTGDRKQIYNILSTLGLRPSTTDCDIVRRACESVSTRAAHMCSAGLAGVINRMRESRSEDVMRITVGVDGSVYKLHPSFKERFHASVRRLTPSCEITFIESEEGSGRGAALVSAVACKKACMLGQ
Assay: Enzymatic coupled glucokinase (GK) assay (NADH production, absorbance at 340 nm)
Settings: concentration of activator that produced 50% of maximum increase in the activity of GK; at 10 mM glucose
parameter-measured: log10 EC50 (log10 of the value in µM)
Please note: log10 values; quantity EC50; unit µM.

Solved cases below.
- compound: "CC(C)C[C@@H]1C[C@]1(C(=O)Nc1nccs1)c1ccc(S(C)(=O)=O)cc1 (racemic)"
  log10 EC50: 0.74
- compound: "CS(=O)(=O)Nc1ccc([C@@]2(C(=O)Nc3nccs3)C[C@H]2C2CCCCC2)cc1 (racemic)"
  log10 EC50: 0.58
- compound: "CNC(=O)c1ccc([C@@]2(C(=O)Nc3nccs3)C[C@H]2C2CCCCC2)cc1 (racemic)"
  log10 EC50: 0.88
- compound: "CC(=O)Nc1ccc([C@@]2(C(=O)Nc3nccs3)C[C@H]2C2CCCCC2)cc1 (racemic)"
  log10 EC50: 1.02
- compound: "CS(=O)(=O)c1cccc([C@@]2(C(=O)Nc3nccs3)C[C@H]2C2CCCCC2)c1 (racemic)"
  log10 EC50: 0.88
- compound: "CS(=O)(=O)c1ccc([C@@]2(C(=O)Nc3nccs3)C[C@H]2C2CCCCC2)cc1 (single isomer, unassigned) [55 (Isomer 1)]"
  log10 EC50: -0.82

# ---- query compound ----
Qu. Need log10 EC50 of COc1ccc([C@@]2(C(=O)Nc3nccs3)C[C@H]2C2CCCCC2)cc1 (racemic) , thanks.
Ans. 0.94

====

Biological target: purified recombinant human islet GK (Homo sapiens, UniProt P35557)
Construct: (His)6
Assay: Enzymatic coupled glucokinase (GK) assay (NADH production, absorbance at 340 nm)
Details: concentration of activator that produced 50% of maximum increase in the activity of GK; at 10 mM glucose
parameter-measured: EC50

Sample records with EC50:
- molecule: "CS(=O)(=O)c1csc([C@@]2(C(=O)Nc3nccs3)C[C@H]2C2CCCC2)c1 (racemic)"
  tested-target: "purified recombinant human islet GK (Homo sapiens, UniProt P35557)"
  EC50: "1.9 µM"
- molecule: "Cc1nnc(NC(=O)[C@]2(c3ccc(S(C)(=O)=O)cc3)C[C@H]2C2CCCC2)s1 (racemic)"
  tested-target: "purified recombinant human islet GK (Homo sapiens, UniProt P35557)"
  EC50: "9.32 µM"
- molecule: "Cc1cc(NC(=O)[C@]2(c3ccc(S(C)(=O)=O)cc3)C[C@H]2C2CCCC2)no1 (racemic)"
  tested-target: "purified recombinant human islet GK (Homo sapiens, UniProt P35557)"
  EC50: "12.7 µM"

Qu. What does the data say about its EC50? Entry: CS(=O)(=O)c1ccc(C2(C(=O)Nc3nccs3)C(C3CCCCC3)C2(F)F)cc1 (single isomer, unassigned) [63 (Isomer 2)]
Ans. 5.3 µM
